Molecular target: T1, human insulin (human, UniProt P01308 25-54; P01308 90-110, limits assumed)
T1 construct: Coated antigen of the polyreactivity ('PK-risk indicator') ELISA
T1 sequence (P01308 25-54 limits assumed, chain 1 of 2): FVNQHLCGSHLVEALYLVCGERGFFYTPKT
T1 sequence (P01308 90-110 limits assumed, chain 2 of 2): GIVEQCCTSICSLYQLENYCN
Experiment: ELISA on human insulin (development risk, polyreactivity), binding score
parameter: binding result

>  <binder>
MH25 (antibody, human IgG4, V domains shown, Deimmunized MH5 derivative, human IgG4(S228P)/Ckappa IgG) VH: QVQLVQSGAEVKKPGSSVKVSCKASGYTFSSHYMIWVRQAPGQGLEWMGDINPYNGGANYAQKFQGRVTITADESTSTAYMELSSLRSEDTAVYYCAREGPYFSNLYVMDYWGQGTLVTVSS VL: EIVLTQSPATLSLSPGERATLSCRASQSVSYEGENYLNWYQQKPGQAPRLLIYAASNRATGIPARFSGSGSGTDFTLTISSPEPEDFAVYYCQLSNEDLLTFGGGTKVEIK

>  <result>
no binding

$$$$
>  <binder>
MH29 (antibody, human IgG4, V domains shown, Deimmunized MH5 derivative, human IgG4(S228P)/Ckappa IgG) VH: QVQLVQSGAEVKKPGSSVKVSCKASGYTFSSNYMIWVRQAPGQGLEWMGDINPYNGGANYAQKFQGRVTITADESTSTAYMELSSLRSEDTAVYYCAREGPYFSNLYVMDYWGRGTLVTVSS VL: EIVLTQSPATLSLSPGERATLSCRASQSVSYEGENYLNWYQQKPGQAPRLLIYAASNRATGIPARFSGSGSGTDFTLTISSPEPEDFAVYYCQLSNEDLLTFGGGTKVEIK

>  <result>
no binding

$$$$
